These measurements were taken from patent US20230346670A1.

Test system: A. actinomycetemcomitans virulence genes
experimental.details: Virulence gene expression in multi-species biofilm (SYBR RT-qPCR)
Type: cell-based
condition.details: substrate 1 M; relative to control = 1, 2^-ΔΔCt; n = 3
Marks after values point to notes of the source that are not given here.
Entries and their fold change in omp100 expression, geometric mean (95% C.I.)
metric: fold change in omp100 expression, geometric mean (95% C.I.)

[[record]]
molecule = "OC[C@H]1O[C@@H](O[C@H]2[C@H](O)[C@@H](O)[C@@H](O)O[C@@H]2CO)[C@H](O)[C@@H](O)[C@H]1O"
assay_value = "0.08 (0.04-0.15)^∗ fold"

[[record]]
molecule = "OC[C@H]1O[C@H](OC[C@H]2O[C@H](O[C@]3(CO)O[C@H](CO)[C@@H](O)[C@@H]3O)[C@H](O)[C@@H](O)[C@@H]2O)[C@H](O)[C@@H](O)[C@H]1O [D-raffinose, D-(+)-raffinose]"
assay_value = "0.09 (0.02-0.43)^∗ fold"

[[record]]
molecule = "OC[C@H]1O[C@H](O[C@H]2O[C@H](CO)[C@@H](O)[C@H](O)[C@H]2O)[C@H](O)[C@@H](O)[C@@H]1O [D-trehalose, D-(+)-trehalose]"
assay_value = "0.09 (0.01-1.11)^∗ fold"

[[record]]
molecule = "CC(=O)N[C@H]1C(O)O[C@H](CO)[C@@H](O)[C@@H]1O (stereo partly shown)"
assay_value = "0.03 (0.01-0.05)* fold"

